Measured values drawn from the Human Domainome abundance scans (Beltran et al. 2025) for this set.

The following variants are listed with their measured abundance fitness values.
B1: Tudor domain-containing protein 3, residues 554 to 611; numbered along this chain, Q9H7E2 (parent)
chain: KMWKPGDECFALYWEDNKFYRAEVEALHSSGMTAVVKFIDYGNYEEVLLSNIKPIQTE

# Variants of: B1
# EXPERIMENT NOTES: abundance fitness (aPCA) (normalised: wild type 0, dead -1); higher = more abundant; growth selection in yeast, the domain comes from the species named
# EXPERIMENTAL CONTEXT: Homo sapiens

# MUTANT LABEL, abundance fitness
records = [
    ("L48P", -0.077),
    ("A34S", -0.73),
    ("E46C", -0.279),
    ("E8W", -0.178),
    ("A34Q", -0.575),
    ("Y20F", -0.807),
    ("I52E", -0.911),
    ("W3D", -1.31),
]
